Entry source: PubChem BioAssay AID328

- Test system: BDF1 mice, P388 leukemia ip, median survival T/C
- protocol.details: NCI In Vivo Anticancer Drug Screen. Data for tumor model P388 Leukemia (intraperitoneal) in B6D2F1 (BDF1) mice
- test.parameters: endpoint: median survival time; dose: 400.0 mg/kg/injection; schedule: Q04DX003 (ip); vehicle: saline with Tween-80
Toxic doses and inconclusive results are not listed. Rule for the calls: active = survival T/C of 150% or more; inactive = T/C below 125% in these data.
Select the matching outcome among YES = active, NO = inactive

Below, 3 molecules whose answers are already recorded.
O=C1NC2NC(=O)NC2N1 (configuration not stated) :: NO
O=C(Nc1cccc2c1N(C(=O)c1ccco1)CCC2)c1ccco1 :: NO
S=c1cc(-c2ccco2)ss1 :: NO

## Task Could you please tell me the result logged for CC(=O)OCC(=O)[C@@]1(O)CC[C@H]2[C@@H]3C=C(C)C4=CC(=O)CC[C@]4(C)[C@H]3[C@@H](O)C[C@@]21C in this assay?
## Result NO

## Task Could you please tell me the result logged for CCSc1nc(C=O)c(Cc2ccc(Br)cc2)c(=O)[nH]1 in this assay?
## Result YES

## Task Could you please tell me the result logged for Nc1nc(=O)[nH]c(N)c1N=O in this assay?
## Result NO

## Task Could you please tell me the result logged for C/C=C/C=C/NC(=O)Oc1ccccc1 in this assay?
## Result NO

## Task Could you please tell me the result logged for CCOC(=O)C1C2OC(=O)C(C(=O)C2N=Nc2ccc(-c3ccc(N=NC4C(=O)C5C(=O)OC4C(C(=O)OCC)C5C4CC=CCC4)cc3)cc2)C1C1CC=CCC1 (configuration not stated) in this assay?
## Result NO

## Task Could you please tell me the result logged for S=c1cc(-c2ccccc2)ss1 in this assay?
## Result NO

## Task Could you please tell me the result logged for Cc1c(Cl)cccc1NC(=O)COc1ccc(Cl)cc1Cl in this assay?
## Result NO

## Task Could you please tell me the result logged for O=C1C=C(c2ccccc2)C(c2ccccc2)C(c2ccccc2)C1 (configuration not stated) in this assay?
## Result NO

## Task Could you please tell me the result logged for Cc1ccc(NC(=O)COc2ccc(Cl)cc2Cl)cc1Cl in this assay?
## Result NO

## Task Could you please tell me the result logged for CCCNC(=O)Nc1cc(C(F)(F)F)ccc1Cl in this assay?
## Result NO

## Task Could you please tell me the result logged for CCN(CC)CC(C)Nc1ccc([N+](=O)[O-])c2sc3ccccc3c(=O)c12 (configuration not stated) in this assay?
## Result NO

## Task Could you please tell me the result logged for CCc1ccc(NC(=O)c2ccccc2Cl)cc1 in this assay?
## Result NO

## Task Could you please tell me the result logged for COC(OC)c1cc(=O)[nH]c(NC(=O)C(Cl)Cl)n1 in this assay?
## Result NO

## Task Could you please tell me the result logged for CNc1nc(N)nc(Nc2ccc(I)cc2)c1N=O in this assay?
## Result NO

## Task Could you please tell me the result logged for COc1ccc2ccccc2c1/C=N/N1CCCCC1 in this assay?
## Result NO

## Task Could you please tell me the result logged for CN(C)c1ccc(C(=O)c2ccc(N(C)C)cc2)cc1 in this assay?
## Result NO

## Task Could you please tell me the result logged for O=C(c1ccccn1)C12CC3CC(CC(C3)C1)C2 in this assay?
## Result NO

## Task Could you please tell me the result logged for O=C(NCc1cnccn1)c1ccccc1Cl in this assay?
## Result NO

## Task Could you please tell me the result logged for CCOC(CNC(=O)NC1CCCCC1)OCC in this assay?
## Result NO

## Task Could you please tell me the result logged for Cc1c(O)ccc(=O)n1O in this assay?
## Result NO

## Task Could you please tell me the result logged for O=C(NC(CO)C(O)c1ccc([N+](=O)[O-])cc1)C(Cl)Cl (configuration not stated) in this assay?
## Result NO

## Task Could you please tell me the result logged for Cc1cccc2c(N3CCOCC3)c3c(nc12)CCCCC3 in this assay?
## Result NO

## Task Could you please tell me the result logged for OC(CBr)(c1ccccc1)c1ccccc1 in this assay?
## Result NO

## Task Could you please tell me the result logged for CC1=CC(=O)C=CC1(C)C(Cl)Cl (configuration not stated) in this assay?
## Result NO
